System: CEM-MTX^R10 cells
Protocol Details: Antifolate growth inhibition assay (XTT), MTX-resistant subline
Format: cell-based
Condition: Homo sapiens, 72 h; CEM-MTX^R10; 3 days incubation, XTT; read-out: IC50 growth inhibition
Kindly supply the reported IC50 values for the records listed here.
Please state the figure in nM; there is no need to write the unit.

`Cc1nc2ccc(CN(C)c3ccc(C(=O)N[C@@H](CCC(=O)O)C(=O)O)s3)cc2c(=O)[nH]1` has a reported IC50 of 110

CN(Cc1cnc2nc(N)nc(N)c2n1)c1ccc(C(=O)N[C@@H](CCC(=O)O)C(=O)O)cc1 [MTX, methotrexate] has a reported IC50 of 28.2

====

Tested on: CEM-MTX^R10 cells
Protocol Details: Antifolate growth inhibition assay (XTT), MTX-resistant subline
Type: cell-based
Condition: Homo sapiens, 72 h, read-out: IC50 growth inhibition
Metric Name: IC50 (nM)
Please state the figure in nM; there is no need to write the unit.

`C#CCN(Cc1cc2c(=O)[nH]c(C)nc2cc1C)c1ccc(C(=O)N[C@@H](CCc2nnn[nH]2)C(=O)O)c(F)c1` has a reported IC50 of 40.8

====

Tested on: CEM-MTX^R5P cells
Protocol Details: Antifolate growth inhibition assay (XTT), MTX-resistant subline
Assay type: cell-based, human
Condition: Homo sapiens, 72 h, read-out: IC50 growth inhibition
Metric Name: pIC50
// pIC50 is dimensionless: -log10 of concentration (M)

`C#CCN(Cc1cc2c(=O)[nH]c(C)nc2cc1C)c1ccc(C(=O)N[C@@H](CCc2nnn[nH]2)C(=O)O)c(F)c1` has a reported pIC50 of 7.86
